Hey, just so you know, these numbers are from patent US20170050957A1.

Listed here are compounds together with their documented pest or weed control at 35 g/ha.
# Tested on: Key Broadleaf Weed and Crop Species
# Test Details: Post-emergent Test II herbicidal activity (Table 15)
# Type: in vivo
# Assay Conditions: Amaranthus retroflexus, post-emergence, 336 h, redroot pigweed (Amaranthus retroflexus), 35 g ai/ha, 14 d, read-out: Visual Growth Reduction (%) 14 Days After Application, AMARE

Here's what some known entries look like.
molecule=COC(=O)c1nc(-c2ccc(Cl)c3ccoc23)cc(N)c1Cl metric_name="pest or weed control at 35 g/ha" experimental_value="95 to 100%"
molecule=COC(=O)c1nc(-c2cc3[nH]ccc3cc2F)cc(N)c1Cl metric_name="pest or weed control at 35 g/ha" experimental_value="75 to 84%"
molecule=COC(=O)c1nc(-c2ccc(Cl)c3[nH]ccc23)nc(N)c1OC metric_name="pest or weed control at 35 g/ha" experimental_value="0 to 29%"
molecule=COC(=O)c1nc(-c2cccc3ccsc23)c(F)c(N)c1Cl metric_name="pest or weed control at 35 g/ha" experimental_value="85 to 94%"
molecule=COC(=O)c1nc(-c2cc3sccc3cc2F)c(F)c(N)c1Cl metric_name="pest or weed control at 35 g/ha" experimental_value="85 to 94%"
molecule=COC(=O)c1nc(-c2ccc(Cl)c3cc[nH]c23)cc(N)c1Cl metric_name="pest or weed control at 35 g/ha" experimental_value="0 to 29%"

Q) Recorded pest or weed control at 35 g/ha of `COc1c(N)nc(-c2ccc3cc[nH]c3c2F)nc1C(=O)O` , please.
A) 75 to 84%

Q) Also check `Nc1c(Cl)c(C(=O)O)nc(-c2ccc3cc[nH]c3c2)c1Cl`
A) 95 to 100%

Q) Also check `COC(=O)c1nc(-c2cccc3sccc23)c(F)c(N)c1Cl`
A) 0 to 29%

Q) Also check `COC(=O)c1nc(-c2ccc3occc3c2)cc(N)c1Cl`
A) 60 to 74%

Q) Also check `COc1c(N)nc(-c2ccc3ccsc3c2)nc1C(=O)O`
A) 95 to 100%

Q) Also check `Nc1cc(-c2ccc3ccsc3c2)nc(C(=O)O)c1Cl`
A) 85 to 94%

Q) Also check `Nc1c(F)c(-c2ccc(Cl)c3occc23)nc(C(=O)O)c1Cl`
A) 95 to 100%
